This collection of values is drawn from patent US20130260436A1.

target: PP1183 (Pseudomonas putida, UniProt Q88NM4)
Sequence (Q88NM4 entry or part of it): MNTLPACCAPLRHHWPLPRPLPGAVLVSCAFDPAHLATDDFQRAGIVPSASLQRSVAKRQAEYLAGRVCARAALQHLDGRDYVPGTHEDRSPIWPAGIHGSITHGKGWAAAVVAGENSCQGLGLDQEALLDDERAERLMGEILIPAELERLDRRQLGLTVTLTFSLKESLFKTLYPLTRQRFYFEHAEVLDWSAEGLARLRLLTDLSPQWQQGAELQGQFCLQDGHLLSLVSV
method: BpsA coupled PPTase inhibition assay, PP1183
Type: biochemical, P. putida KT2440
study.conditions: Ki, PP1183; 5 μM CoA; Cheng-Prusoff, competitive inhibition
pKi: −log10 of the molar value.
reported.property: pKi

chemical.string: O=Nc1ccc2oc(=O)ccc2c1
reported.property: pKi
reported.measurement: 5.17
